# key: entry, value: pKd
# studySystem: TG4T DNA G4 (parallel)
# protocolText: Native ESI-MS, TG4T
# Type: binding
# runConditions: 10 μM DNA, 20 μM ligand, 100 mM ammonium acetate; read-out: Kd2 TG4T
Convention used: pKd is expressed as -log10 of the molar concentration.

[
  {
    "moleculeSmiles": "COc1ccc(-[n+]2c3ccc4cc(OC)ccc4c3cc3c4ccc(OC)cc4ccc32)cc1",
    "studySystem": "TG4T DNA G4 (parallel)",
    "pKd": 4.28
  },
  {
    "moleculeSmiles": "COc1ccc2c(ccc3c2cc2c4ccc(OC)cc4ccc2[n+]3-c2ccc([N+](=O)[O-])cc2)c1",
    "studySystem": "TG4T DNA G4 (parallel)",
    "pKd": 4.64
  }
]

Would you kindly share the measured pKd for "c1ccc(-[n+]2c3ccc4ccccc4c3cc3c4ccccc4ccc32)cc1" ?
4.05

Next entry: "COc1ccc2c(ccc3c2cc2c4ccc(OC)cc4ccc2[n+]3-c2ccccc2)c1"
4.34

// next record "COC(=O)c1ccc(-[n+]2c3ccc4cc(OC)ccc4c3cc3c4ccc(OC)cc4ccc32)cc1"
4.59
